Here is a set of compounds with reported Ki for Prothrombin (Homo sapiens), compiled from the literature.

COMPOUND: O=C(N[C@H]1COC[C@H]1NC(=O)c1ccc(Cl)s1)c1ccc(-n2ccccc2=O)cc1
TESTED_ON: Prothrombin (Homo sapiens)
Ki: > 12000 nM
//
COMPOUND: CCS(=O)(=O)c1ccc2cc1CNC(=O)[C@H](Nc1ccc(C(=N)N)cc1)c1ccc(cc1)CCCC(=O)N2
TESTED_ON: Prothrombin (Homo sapiens)
Ki: 180 nM
//
COMPOUND: COC(=O)CC(CCc1ccc(N=C(N)N)cc1)c1cccc(C(=N)N)c1 (stereo not drawn)
TESTED_ON: Prothrombin (Homo sapiens)
Ki: 3100 nM
//
COMPOUND: Nc1ccc(C[C@H](NS(=O)(=O)c2cnccc2N[C@H](CO)Cc2ccccc2)C(=O)N2CCC(CCF)CC2)cc1
TESTED_ON: Prothrombin (Homo sapiens)
Ki: 39 nM
//
COMPOUND: N=C(N)c1cccc(COc2cc(OCc3cccc(C(=N)N)c3)cc(C(=O)N[C@H]3CC[C@H](N)CC3)c2)c1
TESTED_ON: Prothrombin (Homo sapiens)
Ki: 1290 nM
//
COMPOUND: O=C(Nc1ccc(Cl)cc1)c1cc(Cl)ccc1NC(=O)c1scc(Cn2nccn2)c1Cl
TESTED_ON: Prothrombin (Homo sapiens)
Ki: 3300 nM
//
COMPOUND: Cc1ccc(S(=O)(=O)NC(=O)NCCC(=O)N[C@@H](Cc2c[nH]cn2)C(=O)Nc2ccc(S(=O)(=O)N=C(N)N)cc2)cc1
TESTED_ON: Prothrombin (Homo sapiens)
Ki: 15 nM
//
COMPOUND: CC(C)[C@H](NC(=O)[C@@H]1CCCN1C(=O)[C@@H](NC(=O)c1ccc(C(=O)NS(=O)(=O)c2ccc(Cl)cc2)cc1)C(C)C)C(=O)c1nc2cc(C(N)=O)ccc2o1
TESTED_ON: Prothrombin (Homo sapiens)
Ki: > 50000 nM

====

Here is a set of compounds with reported log10 of Ki for Prothrombin (Homo sapiens), compiled from the literature.
READOUT_KIND: log10 of Ki (log10 of the value in µM)

COMPOUND: Cc1cc(C(=O)NCc2cc(Cl)ccc2-n2cnnn2)cc(N(C2CCCC2)S(C)(=O)=O)c1
log10 of Ki: -2.90

COMPOUND: CS(=O)(=O)N[C@@H](C(=O)N1CCC[C@H]1C(=O)NCc1ccc(CN)nc1)C(c1ccccc1)c1ccccc1
log10 of Ki: -2.22

COMPOUND: CCCNCc1sc(C(=O)Nc2ccc(Cl)cc2C(=O)Nc2ccc(Cl)cc2)c(Cl)c1CNCCC
log10 of Ki: 0.18

COMPOUND: Cc1ccc(NS(=O)(=O)Cc2ccccc2)c(=O)n1CC(=O)NCc1ccc2c(N)[nH]nc2c1
log10 of Ki: -0.65

COMPOUND: Nc1noc2ccc(-n3nc(C(F)(F)F)cc3C(=O)Cc3ccc(-n4ccccc4=O)cc3F)cc12
log10 of Ki: -0.46

COMPOUND: CCOc1cc(OC(C)C)c(F)c(C(Nc2ccc(C(=N)N)cc2)c2nc(-c3ccccc3)c[nH]2)c1 (centres undefined)
log10 of Ki: 0.08

COMPOUND: CC(C)[C@@H](NS(=O)(=O)Cc1ccccc1)C(=O)N1CCC[C@H]1C(=O)NCc1cc(Cl)ccc1CN
log10 of Ki: -3.10

COMPOUND: N=C(N)c1ccc(-n2ccc3ccc(NC(=O)c4cccc(C(=N)N)c4)cc32)cc1
log10 of Ki: 0.37

COMPOUND: CC1(C)CNc2c(cccc2S(=O)(=O)NC(Cc2nc3ccccc3s2)C(=O)N2CCC(CCO)CC2)C1 (centres undefined)
log10 of Ki: -1.10

COMPOUND: FC(F)(CNc1cccc2oc(Nc3cccc(Cl)c3)nc12)c1ccccn1
log10 of Ki: -0.17

COMPOUND: CC1(C)C[C@@H](C(=O)NCc2ccc(C(=N)N)cc2)n2c1c(Cl)nc(NCC1CCCCC1)c2=O
log10 of Ki: -0.66

COMPOUND: N=C(N)c1cccc(Cn2c(C(=O)NCc3cc(Cl)cc(Cl)c3Cl)cc3c(O)cccc32)c1
log10 of Ki: -0.57

COMPOUND: FC(F)(CNc1cccc2oc(Cc3ccccc3-n3cncn3)nc12)C1CCCCN1 (centres undefined)
log10 of Ki: 0.00

COMPOUND: C[C@H](NC(=O)CNC(=O)Nc1ccc(C(=N)N)cc1)c1ccc(Br)cc1
log10 of Ki: 0.83

COMPOUND: CC1(C)CNc2c(cc(CCC(=O)N3CCN(CC(=O)N4CCOCC4)CC3)cc2S(=O)(=O)N[C@@H](Cc2nc3ccccc3s2)C(=O)N2CCC(CCF)CC2)C1
log10 of Ki: -1.24

COMPOUND: CN(CC(=O)N[C@@H](CCCCN)C(=O)C(=O)Nc1ccc(Oc2cccnc2)cc1)C(=O)c1ccccc1Sc1ccccc1C#N
log10 of Ki: -1.30

COMPOUND: N=C(N)N1CCCC(C[C@H](NC(=O)CN2C(=O)CN(CCCc3ccccc3)C(=O)[C@H]2Cc2ccccc2Cl)C(=O)c2nccs2)C1 (some centres undefined)
log10 of Ki: -2.92

COMPOUND: N[C@@H](C(=O)N1CCC[C@H]1C(=O)NCc1cc(Cl)ccc1O)C1CCCCC1
log10 of Ki: -2.60

COMPOUND: N=C(N)c1cccc(C[C@H](NS(=O)(=O)c2cccc(NC(=O)CCN)c2)C(=O)N2CCCC(C(N)=O)C2)c1 (some centres undefined)
log10 of Ki: 0.32

COMPOUND: CCS(=O)(=O)CC1(C(=O)Nc2ncc(-c3ccccc3S(N)(=O)=O)cn2)CC(c2cccc(C(=N)N)c2)=NO1 (centres undefined)
log10 of Ki: 1.11

COMPOUND: N=C(N)c1cccc(-c2noc(N)c2C(=O)Nc2ccc(-c3ccccc3S(N)(=O)=O)cc2)c1
log10 of Ki: 0.60

COMPOUND: N=C(N)c1ccc2c(c1)c(CC(=O)O)cn2CC(=O)N1CCC(Cc2ccccc2)CC1
log10 of Ki: -1.72

COMPOUND: Cc1ccc(NS(=O)(=O)Cc2ccccc2)c(=O)n1CC(=O)NC1CCc2nc(N)sc2C1 (centres undefined)
log10 of Ki: -0.92

COMPOUND: N=C(N)N1CCCC(C[C@H](NC(=O)CN2CC(=O)N(CCCc3ccccc3)CC2=O)C(=O)c2nccs2)C1 (some centres undefined)
log10 of Ki: -0.31

COMPOUND: CS(=O)(=O)N[C@@H](C(=O)N1CCC[C@H]1C(=O)NCc1csc(C(=N)NN)c1)C(c1ccccc1)c1ccccc1
log10 of Ki: -2.74

COMPOUND: CN1CCN=C1c1cccc(Oc2cc(C(=O)O)cc(Oc3cc(C(=N)N)ccc3O)n2)c1
log10 of Ki: -0.09

COMPOUND: O=C1Cn2c(Cl)cnc(c2=O)N[C@@H](Cc2ccccc2)CNCCCCCOc2ccc(Cl)cc2CN1
log10 of Ki: -4.30

COMPOUND: N=C(N)c1ccc(Oc2cc(C(=O)N[C@H]3CC[C@H](N)CC3)cc(Oc3ccc(C(=N)N)cc3)n2)cc1
log10 of Ki: 0.40

COMPOUND: CCOC(=O)CN(Cc1cc(F)cc(F)c1)c1ccc2c(c1)OC(C)(COc1ccc(C(=N)N)cc1)CN2C (centres undefined)
log10 of Ki: -0.32
